Test system: 379773-124-R-J2-PDC spheroid viability;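 note: spheroids exposed to drugs for seven days before readout; percent viability relative to DMSO vehicle control taken as 100%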
Assay: Anticancer human tumor 379773-124-R-J2-PDC patient-derived endometrial carcinoma cell line growth inhibition [POLQ]
Conditions: second compound 1 µM; first compound 3.16 µM; active compounds read low; spheroids with HUVEC and MSC
Measured viability, T/C, listed per entry.
Value expressed in %; do not type the unit.

Supply recorded viability, T/C for COc1cc2cc(C(=O)CCC(=O)O)sc2cc1OC + Nc1ccc(C#CCN(C(=O)Cc2ncc(C(F)(F)F)cc2C(F)(F)F)c2ccc(F)cc2)nn1 here. 96.4

Supply recorded viability, T/C for C=CC(=O)N1CCN(c2nc(=O)n(-c3c(C)ccnc3C(C)C)c3nc(-c4c(O)cccc4F)c(F)cc23)C(C)C1 (stereo not given) + Cc1cccc(N(C)C(=O)C2C(O)CCN2c2nc(C)cc(C(F)(F)F)c2C#N)c1 here. 87.4

Supply recorded viability, T/C for COc1ccc([C@@H](O)c2cc(-c3ncnc4cc(N5CCOCC5)ccc34)c(F)cc2Cl)nn1 + Cc1cccc(N(C)C(=O)C2C(O)CCN2c2nc(C)cc(C(F)(F)F)c2C#N)c1 here. 83.8

New cases:
Supply recorded viability, T/C for CC(C)n1c(=O)n(C)c2cnc3cc(F)c(-c4ccc(OCCCN5CCCCC5)nc4)cc3c21 + Nc1ccc(C#CCN(C(=O)Cc2ncc(C(F)(F)F)cc2C(F)(F)F)c2ccc(F)cc2)nn1 here. 84.7

Supply recorded viability, T/C for CCc1cc2c(N3CCc4c(cc(Cn5ccnc5)cc4-c4cn(C)nc4C(F)(F)F)C3=O)ccnc2c(OC)n1 + Cc1cccc(N(C)C(=O)C2C(O)CCN2c2nc(C)cc(C(F)(F)F)c2C#N)c1 here. 55.9
